Assayed Target: pig kidney FBPase K112A (Sus scrofa, UniProt P00636, K113A)
Construct: His6 (C); made in house; host or cells: Escherichia coli BL21 (DE3)
Sequence (P00636 whole entry K113A): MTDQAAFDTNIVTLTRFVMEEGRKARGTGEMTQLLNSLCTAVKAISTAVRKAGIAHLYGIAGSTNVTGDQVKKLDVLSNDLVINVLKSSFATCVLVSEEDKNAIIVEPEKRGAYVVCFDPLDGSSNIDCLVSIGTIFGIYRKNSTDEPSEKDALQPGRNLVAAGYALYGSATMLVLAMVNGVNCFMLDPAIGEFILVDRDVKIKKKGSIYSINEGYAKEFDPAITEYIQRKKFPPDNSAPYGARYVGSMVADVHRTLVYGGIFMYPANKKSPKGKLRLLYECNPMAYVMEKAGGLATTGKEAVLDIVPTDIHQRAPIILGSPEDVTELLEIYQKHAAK
Run Description: Malachite Green kinetic assay, K112A mutant
Assay type: biochemical
Condition Context: enzyme K112A_1; FBP substrate 10 to 50 µM
Procedure: For the kinetic assay, a standard curve was obtained from an ammonium molybdate Malachite Green inorganic phosphate assay (OD660 nm). The purified FBPase protein was dialyzed ×3 in 50 mM Tris buffer at pH 7.5 at 4°C. For enzyme concentration, absorbency values were recorded for all five mutant proteins using spectrophotometer readings at OD280 nm. To quantitate enzyme concentration, the enzymes were calculated based on the quantity of micrograms per microliter (µg/µl) present. […]
pIC50: −log10 of the molar value.
Outcome Measure: pIC50

a = Nc1ncnc2c1ncn2[C@@H]1O[C@H](COP(=O)(O)O)[C@@H](O)[C@H]1O [AMP]
b = O=P(O)(O)OC[C@H]1O[C@@](CO)(OP(=O)(O)O)[C@@H](O)[C@@H]1O [F2,6-BP, fructose-2,6-bisphosphate]
Pick one, a or b : lowest reported pIC50. Use the label to indicate which entry you chose.
a
(a: 4.16, b: 5.82)
